- ASSAY PROTOCOL: Antioxidant activity assessed as ABTS radical scavenging activity by spectrophotometric analysis
- Format: functional
MEASUREMENT KIND: pIC50
API: returns pIC50 as number; meaning -log10 of concentration in mol/L.

// sample Oc1ccc(/C=C/c2cc(O)cc(O)c2)cc1 , its pIC50 was 2.85

----------
- ASSAY PROTOCOL: Antioxidant activity assessed as DPPH radical scavenging activity by spectrophotometric analysis
- Assay type: functional
MEASUREMENT KIND: pIC50
Answer as the number alone; pIC50 is minus log10 of concentration in mol/L.

Short answer for Oc1ccc(/C=C/c2cc(O)cc(O)c2)cc1 : pIC50 was 3.00
